# System: MILI (PIWIL2) piRISC loaded with piRNA #1 (26 nt);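 further: 1 nM active piRISC with 0.1 nM target library at 33 °C single turnover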
# test.protocol: pre-steady-state target cleavage rate (min^-1); guide: piRNA #1 5'p-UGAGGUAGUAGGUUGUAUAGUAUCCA; higher = faster piRNA-guided slicing of the target
# condition.details: auxiliary factor: 500 nM mouse GTSF1
Tag: Y if measured pre-steady-state target cleavage rate is not below 0.006, N if it is.

GGAGACCUAUCUACUACAACCUACUACCUCA = Y
GGAGACCUAUCUAUACAACGUACUACCUGA = Y
GGAGUGGUUACUAUACAACCUACUACGUCA = Y
GGAGACGAUACUAUAGAACGUACUACCUCA = Y
GGAGACCUAUGAAUACAACCUAACUACCUCA = N
GGAGACCUAACUAAACUACCUACUACCUCA = Y
GGAGUCCUUACUAUACAACCUACUACCUCA = Y
GGAGUCGAUACUAUACAACCAACUACCUCA = N
GGAGACCUAUGAUAUGUUCCUACUUACCUCA = N
GGAGACCAUACUAUACAACCUACUAGGAGA [g6:g23:cont:t1A] = N
GGAGACCUAUGAUUACAACCUACUACGCUCA = Y
GGAGACCUAACUAUACAACCUACUUGCUCA = Y

###

# System: MILI (PIWIL2) piRISC loaded with piRNA #1 (26 nt);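 further: 1 nM active piRISC with 0.1 nM target library at 33 °C single turnover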
# test.protocol: pre-steady-state target cleavage rate (min^-1); guide: piRNA #1 5'p-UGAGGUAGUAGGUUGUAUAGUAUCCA; MIWI and MILI are mouse PIWI proteins and EfPiwi is from a freshwater sponge; tags in brackets are library labels; higher = faster piRNA-guided slicing of the target
# condition.details: auxiliary factor: 500 nM mouse GTSF1
Quick reference: pre-steady-state target cleavage rate of the listed items.
readout.type: pre-steady-state target cleavage rate

GGAGACCUAACUAUACAACCUACUACCCCA = 0.195
GGAGACCUAAGUUUACAACCUACUACCUCA = 0.0168
GGAGACCUAACAUACAACCUACUACCUCA = 0.0208
GGAGACCAUACUAUACAACCUACUACGACA = 0.16
GGAGAGGAUACUAAACAACGUACUACCUCA = 0.013
GGAGACCUUACUAUACAACCUACAUACCUCA = 0.157
GGAGAGGAUACUAUUACAACCUACUACCUCA = 0.167
GGAGACCUUACUAUACAACCUACUACCUUA = 0.174
GGAGACCUUACUAUACCAACCUACUACCUCA = 0.00685
GGAGACCUAUCUAUACAACCUCCUACCUCA = 0.0185
GGAGACCUAUCUAUACAUCCUACUAGCUCA = 0.125
GGAGACCUAUCUAUUCAACCUACUACGUCA = 0.0451
GGAGACCUUACUAUACAACCGUACUACCUCA = 0.00868
GGAGUGGUUACUAUUCAACCUACUACCUCA = 0.202
GGAGAGGAUACUAUACAUCCUACUACCUGA = 0.00529
GGAGACCUUACUAUACAAGCUAGUACCUCA = 0.138
GGAGACCUAACUAUACAUGCUACUACCUCA = 0.0788
GGAGACCUAUCUAUACAACCUACUACCUCC [g2:g20:cont:t1C] = 0.106
GGAGACCAUACAAAACAACCUACUACCUCA = 0.0496
GGAGAGGAUACUAUACAACGUACUACCUGA = 0.0116
GGAGACCUUACUUUACUACCUACUACCUCA = 0.0948
GGAGACCUAUGUAUACAUCCUACAACCUCA = 0.114
GGAGACCUAUGAUAACAACCUACUACCUUA = 0.00415
GGAGACCAUACUAUACAACCUACUACCCA = 0.0934
GGAGACCAUACUAUACCACCUACUACCUCA = 0.157
GGAGUGGAAACUAUACUACCUACUACCUCA = 0.193
GGAGACCUUACUAUACAAGCUACAACCUCA = 0.239
